Organism: Bos taurus
Test: Inhibition of bovine brain tubulin polymerization at 5 uM by fluorescence assay
Readout label: inhibition (%)
Give bare numbers, in %.

# annotated cases, reported inhibition shown
compound=C=C(c1ccc(C(F)(F)F)cc1)c1cc(OC)c(OC)c(OC)c1-c1ccccc1 units_label=% measured_value=49
compound=C=C(c1ccc(Cl)cc1)c1cc(OC)c(OC)c(OC)c1-c1ccccc1 units_label=% measured_value=51
compound=COc1ccc(/C=C/c2cc(OC)c(OC)c(OC)c2-c2ccc3ccccc3c2)cc1 units_label=% measured_value=50

Q: Given "C=C(c1ccc(OC)cc1)c1cc(OC)c(OC)c(OC)c1-c1ccccc1" , state its recorded inhibition.
Ans: 49

----------
So I've got a bunch of compounds here, and I need their IC50 values.
Test system: SK-N-SH
Test: Cytotoxicity against human SK-N-SH cells after 48 hrs by MTT assay
Type: functional, cell-based
Give bare numbers, in µM.

# annotated cases, reported IC50 shown
compound=COc1ccc(/C=C/c2cc(OC)c(OC)c(OC)c2-c2ccccc2)cc1 target_or_test_system=SK-N-SH measured_value=11
compound=C=C(c1ccc(C(F)(F)F)cc1)c1cc(OC)c(OC)c(OC)c1-c1ccccc1 target_or_test_system=SK-N-SH measured_value=13
compound=C=C(c1ccc(OC)cc1)c1cc(OC)c(OC)c(OC)c1-c1ccc(F)c(F)c1 target_or_test_system=SK-N-SH measured_value=7.5

Turning to the following compound.
Q: Given "COc1ccc(/C=C/c2cc(OC)c(OC)c(OC)c2-c2ccc3c(c2)OCO3)cc1" , state its recorded IC50.
Ans: 8
